Values from patent US11857661B2

System: Malassezia furfur CBS 1878
Test: Minimum inhibitory concentration, broth dilution
Assay type: cell-based
Details: M. furfur CBS 1878; classic broth dilution protocol
Source text: Inhibition is defined as giving less than 20% growth compared to a control, as determined by spectrophotometric optical density (OD) reading at 620 nm, using the formula % of growth=[(ODproduct−OCabsorbance-control)]/(ODpositive growth-control). […]
parameter: minimum inhibition concentration (MIC) value (%)

Cc1ccc(C(C)C)cc1	0.5

1 = O=c1oc2c(O)c(O)cc3c(=O)oc4c(O)c(O)cc1c4c23
2 = Cc1ccc(C(C)C)c(O)c1
Query: Thinking about recorded minimum inhibition concentration (MIC) value values, which is higher, 1 or 2 ? Return value: the label identifying the chosen record.
Reply: 1
(1: 0.5%, 2: 0.05%)
